# Measurement target: T1, human CD19 protein with a biotinylated AviTag (Acrobiosystems) (human, UniProt P15391 20-291, biotinylated AviTag)
# T1 construct: Captured on streptavidin-coated microplate wells; also called biotinylated-AviTag-CD19; hCD19; not shown: AviTag
# T1 sequence (looked up): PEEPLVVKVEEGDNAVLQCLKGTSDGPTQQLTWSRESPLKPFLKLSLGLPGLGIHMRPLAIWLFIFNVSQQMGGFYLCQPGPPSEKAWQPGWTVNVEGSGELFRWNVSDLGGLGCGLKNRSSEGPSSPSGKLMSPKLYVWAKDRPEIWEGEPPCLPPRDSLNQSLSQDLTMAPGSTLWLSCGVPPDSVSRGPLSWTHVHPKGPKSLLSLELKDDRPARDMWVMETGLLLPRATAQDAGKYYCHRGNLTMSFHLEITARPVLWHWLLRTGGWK
# Assay remarks: phage ELISA, biotinylated AviTag CD19 on streptavidin wells; signal ratio to FMC63 standard
Kindly state ELISA hCD19 (ratio FMC63) for each of the entries shown.

Some solved entries appear below for comparison.
scFv 19 (scFv, Canine scFv (VL-linker-VH); also called P3-35) scFv: QAVLTQPASVSGPLGQRVTISCSGSTNNIGIVGAAWYQQFPGKAPKLLVYSDGSRPSGVPDRFSGSNSGNSATLTISGLQAEDEADYYCQSVDATHGTILFGGGTQLTVLGGGSSRSSSSGGGGSGGGGEVQLVETGGDLVKPAGSLRLSCAASGFPFSGYSMTWVRQAPEKGLQLVAGINSDGSHTYYTDDVKGRFTVSRDNTKYILYLQMNSLRVEDTAIYYCGSHSWGNFHYWGQGTLVTVSSESPSPPNLTSGQAGQHHHHHHGAYPYDVPDYAS : 0.26 ratio to FMC63
scFv 37 (scFv, Canine scFv (VL-linker-VH); also called P3-27) scFv: SSVLTQPPSVSVSLGQTATISCSGESLNDYYAQWFQQKAGQVPVLVIYRDTERPSGIPDRFSGSSSGNTHTLTISGARAEDEADYYCESEVSAGGAVFGEGTHLTVLGGGSSRSSSSGGGGSGGGGEVQLVETGGDLVKPGGSLRLSCVASGFTLRDYSMTWVRQTPEKGLQLVAGISTGGSTTYYIDAVKGRFTISRDNAKNTVYLQMNSLRAEDTAMYHCTTTALGYWGQGTLVTVSSASTTTPSVTSGQAGQHHHHHHGAYPYDVPDYAS : 0.1 ratio to FMC63
scFv 38 (scFv, Canine scFv (VL-linker-VH); also called P3-17) scFv: SSVLTQPPSVSVSLGQTATISCSGESLSEYYAQWFQQKAGQAPVLVIYKDTERPSGIPDRFSGSSSGNTHTLTISGARAEDEADYYCASADSSAIPVFGGGTHLTVLGGGSSRSSSSGGGGSGGGGEVQLVESGGDLVKPGGSLRLSCVASGFNFGNYAVSWVRQAPGKGLQWVAGISNDGTITGYTDVVEGRFIISRDNAKNTLYLQMNSLRAEDMAIYYCVAGGFLDYWGQGTLVTVSSASTTAPSVTSGQAGQHHHHHHGAYPYDVPDYAS : 0.64 ratio to FMC63
scFv 7 (scFv, Canine scFv (VL-linker-VH); also called scFv_07; P3-47) scFv: SYELTQPPSMSAALGQRVTISCTGSNTNIGSGYDVQWYQQVPGKSPTPLIYGNTNRPSGVPVRFSGSKSGNTATLTITGIQAEDEADYYCQSYDDNFDGHHVFGSGTQLTVLGGGSSRSSSSGGGGSGGGGEVQLVESGGDLVKPAGSLRLSCVASGFTFSNYGMNWVRQAPGKGLQWVAGINSGGSTTTYADVVKGRFTISRDNAKNTLYLQMNSLGAEDTAVYYCARVDYSSSWLVDYWGQGTLVTVSSASTTAPSVTSGQAGQHHHHHHGAYPYDVPDYAS : 0.83 ratio to FMC63

Field: next binder
Kindly indicate its recorded ELISA hCD19 (ratio FMC63). Item: scFv 6 (scFv, Canine scFv (VL-linker-VH); also called scFv_06; P3-28) scFv: QPVLTQPPSVSGSLGQRVTISCTGTNTNIGSGYSVQWYQQLPGESPKPIIYGSSNRPSGVPARFSGSKSGSTGTLTITGIQAEDEADYHCQSYDDSLDGHAVFGGGTQLTILGGGSSRSSSSGGGGSGGGGEVQLVQSGGDLVKPGGSLRLSCVASGFTFSDNYMSWIRQVPGKGLQWVSRISTDGRGTSYADAVKGRFTISRDNAKNTLYLQMNSLRDEDTAVYYCARRSGIWGFDYWGQGALVTVSSESPSPPNLTSGQAGQHHHHHHGAYPYDVPDYAS
0.47 ratio to FMC63
